Measure name: melting point

| Compound | Obs value |
| --- | --- |
| Cc1noc(NS(=O)(=O)c2ccccc2-c2ccc(-c3ncco3)cc2CN2CCN(c3ccccc3)C2=O)c1C | 140 to 150 °C |
| Clc1cc(-c2ccc3nnn(Cc4ccc5ncccc5c4)c3n2)ccn1 | 197 to 199 °C |
| O=c1c2cc(Br)ccc2ncn1Cc1cccnc1 | 162 to 164 °C |
| NC[C@@H]1CN(c2nc3c(cc2F)c(=O)c(C(=O)O)cn3C2CC2)C[C@@H]1F (relative stereo) | 217 to 218 °C |
| CCCc1[nH]c(=O)oc1-c1ccnc(-c2ccccc2)c1 | 202 to 204 °C |
| NS(=O)(=O)c1cc(C(=O)O)cc([N+](=O)[O-])c1Nc1ccc(Cl)cc1 | 241 to 243 °C |
| O=C1N(Cc2ccc(C(F)(F)F)o2)c2ccccc2C12COc1ccc(=O)[nH]c12 (centres undefined) | 175 to 177 °C |
| O=C(O)CC[C@H](NC(=O)N1CCc2cc(S(=O)(=O)N3CCN(c4cccc(Cl)c4)CC3)ccc21)C(=O)O | 181 to 182 °C |
| COc1cc(C)c(C(=O)c2c(OC)ncc(Cl)c2C)c(OC)c1OC | 92 to 94 °C |
